test.system: HIV-1 integrase (Human immunodeficiency virus type 1 group M subtype B)
test.summary: HIV-1 integrase inhibition assay in vitro (radiolabeled duplex substrate, U5 end of HIV LTR)
Type: biochemical
settings: concentration of drug required to reduce the enzyme activity by 50%; read-out: IC50
// NB: equality with 3000 nM counts as NOT MET; only IC50 strictly below is MET

The following molecules have reported results that may help.
[[record]]
molecule = "CNS(=O)(=O)c1cccc(N=Nc2nc(C)c(O)c(C=O)c2COP(=O)(O)O)c1 [Example 26]"
classification = "NOT MET"

[[record]]
molecule = "CCCCNS(=O)(=O)c1cccc(N=Nc2nc(C)c(O)c(C=O)c2COP(=O)(O)O)c1 [Example 19]"
classification = "MET"

[[record]]
molecule = "Cc1nc(N=Nc2cccc(S(=O)(=O)N3CCCC3)c2)c(COP(=O)(O)O)c(C=O)c1O [Example 12]"
classification = "MET"

[[record]]
molecule = "Cc1nc(/N=N/c2cccc(C(=O)N3CCCCC3)c2)c(COP(=O)(O)O)c(C=O)c1O [Example 8]"
classification = "MET"

[[record]]
molecule = "Cc1nc(N=Nc2ccc(S(=O)(=O)Nc3ncccn3)cc2)c(COP(=O)(O)O)c(C=NO)c1O [Example 53]"
classification = "MET"

[[record]]
molecule = "Cc1nc(N=Nc2ccc(C(=O)NC3CCCCC3)cc2)c(COP(=O)(O)O)c(C=O)c1O [Example 14]"
classification = "NOT MET"

[[record]]
molecule = "Cc1nc(N=Nc2ccc(S(=O)(=O)N3CCCC3)cc2)c(COP(=O)(O)O)c(C=O)c1O [Example 15]"
classification = "MET"


Turning to the following molecule.
query: Say whether its IC50 is strictly beneath 3000 nM. Entry: Cc1nc(N=Nc2cccc(C(=O)NC3=NCCCN3)c2)c(COP(=O)(O)O)c(C=O)c1O [Example 36]
result: NOT MET

* * *

Test system: MT-4 cell line
test.summary: Cytotoxicity assay in vitro (MTT, virus omitted)
Format: cell-based
settings: human, 6 days
Structures can show the parent of a compound that is named as a salt.
Parameter threshold = 30 µM. Response is Fulfilled when CCIC50 meets or exceeds it, else Not fulfilled.

[[record]]
compound = "Cc1nc(N=Nc2cc(C(=O)O)cc(C(=O)O)c2)c(COP(=O)(O)O)c(C=O)c1O [Example 50]"
test_system = "MT-4 cell line"
classification = "Fulfilled"

[[record]]
compound = "Cc1nc(N=Nc2ccc(C#N)cc2)c(COP(=O)(O)O)c(C=O)c1O"
test_system = "MT-4 cell line"
classification = "Fulfilled"

[[record]]
compound = "Cc1nc(N=Nc2cc(C(=O)O)cc(C(=O)O)c2)c(COP(=O)(O)O)c(C=O)c1O [Example 49]"
test_system = "MT-4 cell line"
classification = "Not fulfilled"

[[record]]
compound = "Cc1nc(N=Nc2ccc(S(=O)(=O)Nc3ccc(F)cc3)cc2)c(COP(=O)(O)O)c(C=O)c1O"
test_system = "MT-4 cell line"
classification = "Fulfilled"

[[record]]
compound = "Cc1nc(N=Nc2cccc(C(=O)NC34CC5CC(CC(C5)C3)C4)c2)c(COP(=O)(O)O)c(C=O)c1O [Example 4, Hydrochloride]"
test_system = "MT-4 cell line"
classification = "Not fulfilled"


Turning to the following compound.
query: Determine whether this compound has CCIC50 no lower than 30 µM: `Cc1nc(N=Nc2cccc(C(=O)Nc3ccccn3)c2)c(COP(=O)(O)O)c(C=O)c1O`
result: Fulfilled

* * *

A collection of compounds and their measured pIC50
test.system: HIV-1 integrase (Human immunodeficiency virus type 1 group M subtype B, UniProt P12497)
test.summary: HIV-1 integrase inhibition assay in vitro (radiolabeled duplex substrate, U5 end of HIV LTR)
Format: biochemical
settings: concentration of drug required to reduce the enzyme activity by 50%; read-out: IC50
Reminder that pIC50 is minus the log10 of a molar concentration.

Solved cases below.
[[record]]
chemical_string = "Cc1nc(N=Nc2cccc(S(=O)(=O)N3CCCCC3)c2)c(COP(=O)(O)O)c(C=O)c1O"
test_system = "HIV-1 integrase (Human immunodeficiency virus type 1 group M subtype B, UniProt P12497)"
measurement_name = "pIC50"
numeric_result = 5.36

[[record]]
chemical_string = "Cc1nc(N=Nc2cccc(Cl)c2)c(COP(=O)(O)O)c(C=O)c1O"
test_system = "HIV-1 integrase (Human immunodeficiency virus type 1 group M subtype B, UniProt P12497)"
measurement_name = "pIC50"
numeric_result = 5.59

[[record]]
chemical_string = "Cc1nc(N=Nc2cccc(S(N)(=O)=O)c2)c(COP(=O)(O)O)c(C=O)c1O"
test_system = "HIV-1 integrase (Human immunodeficiency virus type 1 group M subtype B, UniProt P12497)"
measurement_name = "pIC50"
numeric_result = 4.89


Turning now to a further record.
get_value(item= `Cc1nc(N=Nc2ccc(S(=O)(=O)Nc3ccccc3F)cc2)c(COP(=O)(O)O)c(C=O)c1O` , readout=pIC50) returns 5.11

* * *

test.system: UniProtKB P12497
test.summary: HIV-1 integrase inhibition assay in vitro (radiolabeled duplex substrate, U5 end of HIV LTR)
Type: biochemical
settings: IC50, concentration of drug required to reduce the enzyme activity by 50%
pIC50: −log10 of the molar value. Structures can show the parent of a compound that is named as a salt.
Parameter threshold = 6. Response is Met when pIC50 meets or exceeds it, else Not met.

[[record]]
compound = "Cc1nc(N=Nc2cc(C(=O)O)cc(C(=O)O)c2)c(COP(=O)(O)O)c(C=O)c1O [Example 22]"
classification = "Met"

[[record]]
compound = "Cc1nc(N=Nc2cc(F)c(F)c(C(=O)O)c2F)c(COP(=O)(O)O)c(C=O)c1O [Example 41]"
classification = "Not met"

[[record]]
compound = "Cc1nc(N=Nc2cccc(C(=O)O)c2C(=O)O)c(COP(=O)(O)O)c(C=O)c1O [Example 47]"
classification = "Met"

[[record]]
compound = "Cc1nc(N=Nc2ccc(S(=O)(=O)N3CCCCC3)cc2)c(COP(=O)(O)O)c(C=O)c1O [Example 7]"
classification = "Not met"

[[record]]
compound = "Cc1nc(N=Nc2cccc(C(=O)NC34CC5CC(CC(C5)C3)C4)c2)c(COP(=O)(O)O)c(C=O)c1O [Example 4, Hydrochloride]"
classification = "Met"

[[record]]
compound = "Cc1nc(N=Nc2ccc(S(=O)(=O)NC34CC5CC(CC(C5)C3)C4)cc2)c(COP(=O)(O)O)c(C=O)c1O [Example 3, Hydrochloride]"
classification = "Met"


query: Determine whether this compound has pIC50 no lower than 6: CCOC(OCC)c1c(O)c(C)nc(N=Nc2cc(C(=O)O)cc(C(=O)O)c2)c1COP(=O)(O)O [Example 51]
result: Met

query: Determine whether this compound has pIC50 no lower than 6: Cc1nc(N=Nc2ccc(S(=O)(=O)Nc3ncccn3)cc2)c(COP(=O)(O)O)c(C=O)c1O [Example 25]
result: Met

query: Determine whether this compound has pIC50 no lower than 6: Cc1nc(N=Nc2ccccc2C(=O)O)c(COP(=O)(O)O)c(C=O)c1O [Example 48]
result: Met

query: Determine whether this compound has pIC50 no lower than 6: Cc1nc(N=Nc2cc(C(=O)O)cc(C(=O)O)c2)c(COP(=O)(O)O)c(C=O)c1O [Example 50]
result: Met

query: Determine whether this compound has pIC50 no lower than 6: Cc1nc(N=Nc2ccc(S(N)(=O)=O)cc2)c(COP(=O)(O)O)c(C=O)c1O [Example 2]
result: Met

query: Determine whether this compound has pIC50 no lower than 6: Cc1nc(N=Nc2cc(C(=O)O)cc(C(=O)O)c2)c(COP(=O)(O)O)c(C=O)c1O [Example 49]
result: Met

query: Determine whether this compound has pIC50 no lower than 6: Cc1nc(N=Nc2ccc(S(=O)(=O)Nc3nccs3)cc2)c(COP(=O)(O)O)c(C=O)c1O [Example 24]
result: Met

query: Determine whether this compound has pIC50 no lower than 6: Cc1nc(N=Nc2ccc(C#N)cc2)c(COP(=O)(O)O)c(C=O)c1O [Example 42]
result: Not met

query: Determine whether this compound has pIC50 no lower than 6: Cc1nc(N=Nc2cccc(C(=O)Nc3ccncc3)c2)c(COP(=O)(O)O)c(C=O)c1O [Example 30]
result: Not met

query: Determine whether this compound has pIC50 no lower than 6: Cc1nc(N=Nc2cc(C(=O)O)cc(C(=O)O)c2)c(COP(=O)(O)O)c(C=NO)c1O [Example 52]
result: Not met

query: Determine whether this compound has pIC50 no lower than 6: Cc1nc(N=Nc2cccc(C(=O)Nc3ccccn3)c2)c(COP(=O)(O)O)c(C=O)c1O [Example 29]
result: Not met

query: Determine whether this compound has pIC50 no lower than 6: Cc1nc(N=Nc2cccc(S(=O)(=O)NC(C)(C)C)c2)c(COP(=O)(O)O)c(C=O)c1O [Example 9]
result: Not met

query: Determine whether this compound has pIC50 no lower than 6: Cc1nc(N=Nc2cccc(C(=O)O)c2Cl)c(COP(=O)(O)O)c(C=O)c1O [Example 39]
result: Not met

query: Determine whether this compound has pIC50 no lower than 6: Cc1ccc(C(=O)O)cc1N=Nc1nc(C)c(O)c(C=O)c1COP(=O)(O)O [Example 38]
result: Not met

query: Determine whether this compound has pIC50 no lower than 6: Cc1nc(N=Nc2cccc(C(=O)Nc3cccc4c3CCCN4)c2)c(COP(=O)(O)O)c(C=O)c1O [Example 37]
result: Not met

query: Determine whether this compound has pIC50 no lower than 6: Cc1nc(N=Nc2cccc(C(=O)Nc3cccc4cnccc34)c2)c(COP(=O)(O)O)c(C=O)c1O [Example 31]
result: Not met

query: Determine whether this compound has pIC50 no lower than 6: Cc1nc(N=Nc2cccc(C(=O)Nc3cccnc3)c2)c(COP(=O)(O)O)c(C=O)c1O [Example 28]
result: Not met
